# Target Desc: human ether-à-go-go-related gene (hERG) potassium channel (human)
# Test Description: primary screen, population patch clamp on CHO cells stably expressing hERG; higher = less effect of the substance
Screen size: about 310,000 compounds; about 14,000 (4.5%) showed an effect of 50% or more. Effects have a minus sign here. Many of the other results were omitted from the sample, so strong results are more common in it than they were.
Short version: hERG current change (%, negative = inhibition) at 10uM at least -20% is Satisfied, less is Not satisfied.

Compound: CCOC(=O)c1cccc(NC(=O)CCn2cccc2)c1
Target Desc: human ether-à-go-go-related gene (hERG) potassium channel (human)
Class Assignment: Not satisfied

Compound: Cc1nc(CN(C)C(=O)c2ccccc2OC2CCN(S(C)(=O)=O)CC2)cs1
Target Desc: human ether-à-go-go-related gene (hERG) potassium channel (human)
Class Assignment: Satisfied

Compound: CC(=O)c1ccc(NC(=O)C2CCCN2S(=O)(=O)c2ccc(F)cc2)cc1 (centres unmarked)
Target Desc: human ether-à-go-go-related gene (hERG) potassium channel (human)
Class Assignment: Satisfied

Compound: COc1cccc(C(=O)C2CCCN(Cc3c(C)n(C)n(-c4ccccc4)c3=O)C2)c1 (centres unmarked)
Target Desc: human ether-à-go-go-related gene (hERG) potassium channel (human)
Class Assignment: Not satisfied

Compound: CCOC(=O)N1CCN(Cc2nc3c(c(=O)[nH]c(=O)n3C)n2CCCc2ccccc2)CC1
Target Desc: human ether-à-go-go-related gene (hERG) potassium channel (human)
Class Assignment: Not satisfied

Compound: CC(C)Oc1cccc(C(=O)C2CCCN(Cc3ccon3)C2)c1 (centres unmarked)
Target Desc: human ether-à-go-go-related gene (hERG) potassium channel (human)
Class Assignment: Satisfied

Compound: CCCCCn1c(CN2CCN(C(=O)OCC)CC2)nc2c1c(=O)[nH]c(=O)n2C
Target Desc: human ether-à-go-go-related gene (hERG) potassium channel (human)
Class Assignment: Not satisfied

Compound: CCCCCCn1c(CN2CCC(C)CC2)nc2c1c(=O)n(C)c(=O)n2C
Target Desc: human ether-à-go-go-related gene (hERG) potassium channel (human)
Class Assignment: Satisfied

Compound: CCOCCn1c(CN2CCCC(C)C2)nc2c1c(=O)n(C)c(=O)n2C (centres unmarked)
Target Desc: human ether-à-go-go-related gene (hERG) potassium channel (human)
Class Assignment: Satisfied

Compound: COc1ccc(CNC(=O)C(C#N)c2nc3ccccc3nc2N2CCCC2)cc1 (centres unmarked)
Target Desc: human ether-à-go-go-related gene (hERG) potassium channel (human)
Class Assignment: Satisfied

* * *

# Target Desc: human ether-à-go-go-related gene (hERG) potassium channel (human, UniProt Q12809)
# Sequence (Q12809 whole entry, looked up): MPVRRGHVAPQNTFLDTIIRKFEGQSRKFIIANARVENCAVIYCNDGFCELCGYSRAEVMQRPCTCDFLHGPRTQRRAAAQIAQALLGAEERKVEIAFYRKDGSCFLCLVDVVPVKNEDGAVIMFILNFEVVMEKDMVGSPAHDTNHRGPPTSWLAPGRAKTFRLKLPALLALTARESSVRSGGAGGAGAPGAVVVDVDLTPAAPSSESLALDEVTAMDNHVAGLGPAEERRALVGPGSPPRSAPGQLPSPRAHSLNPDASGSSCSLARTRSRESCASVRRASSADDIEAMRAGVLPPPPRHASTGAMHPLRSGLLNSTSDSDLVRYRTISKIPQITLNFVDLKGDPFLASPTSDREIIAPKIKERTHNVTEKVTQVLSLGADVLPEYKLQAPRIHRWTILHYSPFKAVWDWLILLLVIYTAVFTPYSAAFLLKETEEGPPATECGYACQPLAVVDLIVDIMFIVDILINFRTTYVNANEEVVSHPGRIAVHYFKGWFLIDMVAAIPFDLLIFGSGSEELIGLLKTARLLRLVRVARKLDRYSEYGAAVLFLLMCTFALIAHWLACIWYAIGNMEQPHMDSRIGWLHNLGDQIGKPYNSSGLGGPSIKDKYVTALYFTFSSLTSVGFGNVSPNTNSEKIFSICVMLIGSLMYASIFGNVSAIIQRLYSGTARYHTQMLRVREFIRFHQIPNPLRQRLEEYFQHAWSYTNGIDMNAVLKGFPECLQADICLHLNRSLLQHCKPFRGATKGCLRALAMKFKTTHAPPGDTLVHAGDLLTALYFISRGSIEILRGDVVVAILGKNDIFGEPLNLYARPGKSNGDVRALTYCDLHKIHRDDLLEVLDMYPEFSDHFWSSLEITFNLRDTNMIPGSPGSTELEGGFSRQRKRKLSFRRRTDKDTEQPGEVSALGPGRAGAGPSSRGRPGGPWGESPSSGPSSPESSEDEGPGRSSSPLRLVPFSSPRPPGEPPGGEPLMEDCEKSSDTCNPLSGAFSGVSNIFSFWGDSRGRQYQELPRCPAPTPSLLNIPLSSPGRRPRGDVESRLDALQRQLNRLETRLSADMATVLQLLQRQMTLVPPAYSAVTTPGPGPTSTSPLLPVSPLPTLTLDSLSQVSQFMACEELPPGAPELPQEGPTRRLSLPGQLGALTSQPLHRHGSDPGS
# Test Description: primary screen, population patch clamp on CHO cells stably expressing hERG; higher = less effect of the substance
The whole screen tested about 310,000 compounds, of which about 14,000 (4.5%) showed an effect of 50% or more. Effects have a minus sign here. Only a selection was taken, and strong results are over-represented in it overall.
hERG current change (%, negative = inhibition) at 10uM of -30% or higher: yes. Under -30%: no.

Molecule: CC(Oc1cccc(Cl)c1)C(=O)Nc1cc(S(=O)(=O)N2CCOCC2)ccc1N1CCCC1 (centres unmarked)
Class Assignment: yes

Molecule: COc1ccc(-n2c(CN3CCN(c4ccccn4)CC3)nc3ccc([N+](=O)[O-])cc3c2=O)c(OC)c1
Class Assignment: no

Molecule: CCOC(=O)C1CCN(Cc2nc3ccc([N+](=O)[O-])cc3c(=O)n2-c2ccc(OC)cc2OC)CC1
Class Assignment: no

Molecule: CCOC(=O)C1CCCN(Cc2nc3ccc([N+](=O)[O-])cc3c(=O)n2-c2ccc(OC)cc2OC)C1 (centres unmarked)
Class Assignment: yes

Molecule: CC(Oc1cccc(Cl)c1)C(=O)Nc1cc(S(=O)(=O)N2CCCCC2)ccc1N1CCOCC1 (centres unmarked)
Class Assignment: yes

* * *

# hERG current change (%, negative = inhibition) at 10uM per record follows
# Target Desc: human ether-à-go-go-related gene (hERG) potassium channel (human)
# Test Description: primary screen, population patch clamp on CHO cells stably expressing hERG; higher = less effect of the substance
Hit rate of the full screen: of about 310,000 compounds, about 14,000 (4.5%) showed an effect of 50% or more. The effect is printed as a negative number. The full list was thinned out, with strong results kept by preference.
Readout: hERG current change (%, negative = inhibition) at 10uM

Smi: CCCOC(=O)c1ccc(Oc2c(-c3ccc(O)cc3O)n[nH]c2C)cc1
Reported Measurement: -2.68%
--
Smi: COC(=O)c1ccc(N2CCN(S(=O)(=O)c3ccccc3)CC2)c([N+](=O)[O-])c1
Reported Measurement: -14.1%
--
Smi: CCOc1ccc(S(=O)(=O)N2CCN(C(=O)c3ccncc3)CC2)cc1
Reported Measurement: 4.67%
--
Smi: NC(=O)c1ccc(N2CCN(S(=O)(=O)c3ccccc3)CC2)c([N+](=O)[O-])c1
Reported Measurement: -58.7%
--
Smi: Cc1ccc(S(=O)(=O)N2CCN(C(=O)c3ccc(N4CCCC4)c([N+](=O)[O-])c3)CC2)cc1
Reported Measurement: -18.1%
--
Smi: Cc1ccc(-c2csc(NC(=O)c3ccco3)n2)cc1C
Reported Measurement: -15.6%

* * *

# Target Desc: human ether-à-go-go-related gene (hERG) potassium channel (human, UniProt Q12809)
# Test Description: primary screen, population patch clamp on CHO cells stably expressing hERG; higher = less effect of the substance
Among all 310,000 compounds or so, about 14,000 (4.5%) showed an effect of 50% or more. Effects have a minus sign here. The sample holds strong results, similar compounds and a random draw of the others, so the mix is not that of the screen.
// hERG current change (%, negative = inhibition) at 10uM lookup, one value per entry
Readout: hERG current change (%, negative = inhibition) at 10uM (%)

Compound: Cc1ccc2nc(-c3ccccc3)nc(SC(C)C(=O)NCc3cccs3)c2c1 (stereo not drawn)
Target Desc: human ether-à-go-go-related gene (hERG) potassium channel (human, UniProt Q12809)
Reported Measurement: 11.7
--
Compound: CCCCN(C)C1CCN(C(=S)Nc2cccc(SC)c2)CC1
Target Desc: human ether-à-go-go-related gene (hERG) potassium channel (human, UniProt Q12809)
Reported Measurement: -59.8
--
Compound: CCOC(=O)C1(CCc2ccccc2)CCN(Cc2ccccn2)CC1
Target Desc: human ether-à-go-go-related gene (hERG) potassium channel (human, UniProt Q12809)
Reported Measurement: -74.3
--
Compound: Cc1ccc(C)c2c(SC(C)C(=O)NCc3ccco3)nc(-c3ccccc3)nc12 (stereo not drawn)
Target Desc: human ether-à-go-go-related gene (hERG) potassium channel (human, UniProt Q12809)
Reported Measurement: -64.7
--
Compound: CCOC(=O)C1(Cc2cccc(OC)c2)CCCN(Cc2nccn2CC)C1 (stereo not drawn)
Target Desc: human ether-à-go-go-related gene (hERG) potassium channel (human, UniProt Q12809)
Reported Measurement: -30.8
--
Compound: CSc1cccc(NC(=S)N2CCC(N(C)C3CCCCC3C)CC2)c1 (stereo not drawn)
Target Desc: human ether-à-go-go-related gene (hERG) potassium channel (human, UniProt Q12809)
Reported Measurement: -58.2
--
Compound: CSc1cccc(NC(=S)N2CCC(c3ccccc3)C2)c1 (stereo not drawn)
Target Desc: human ether-à-go-go-related gene (hERG) potassium channel (human, UniProt Q12809)
Reported Measurement: 7.54
--
Compound: Cc1ccc(S(=O)(=O)CCC(=O)N2CCN(c3ccc([N+](=O)[O-])cc3)CC2)cc1
Target Desc: human ether-à-go-go-related gene (hERG) potassium channel (human, UniProt Q12809)
Reported Measurement: -70.8
--
Compound: Cc1c(C(=O)N2CCN(c3ccccc3F)CC2)sc2ncn(CC(=O)N3CCOCC3)c(=O)c12
Target Desc: human ether-à-go-go-related gene (hERG) potassium channel (human, UniProt Q12809)
Reported Measurement: -3.64
--
Compound: CCOC(=O)C1(Cc2ccccc2)CCN(Cc2nccn2CC)CC1
Target Desc: human ether-à-go-go-related gene (hERG) potassium channel (human, UniProt Q12809)
Reported Measurement: -20
--
Compound: Cc1c(C(=O)N2CCN(c3ccc([N+](=O)[O-])cc3)CC2)sc2ncn(CC(=O)N3CCOCC3)c(=O)c12
Target Desc: human ether-à-go-go-related gene (hERG) potassium channel (human, UniProt Q12809)
Reported Measurement: -62.2
--
Compound: CN(C1CCCC1)C1CCN(C(=S)Nc2cc(F)cc(F)c2)CC1
Target Desc: human ether-à-go-go-related gene (hERG) potassium channel (human, UniProt Q12809)
Reported Measurement: -42
--
Compound: CCCCN(C(=S)Nc1cccc(SC)c1)C1CCN(C(C)=O)CC1
Target Desc: human ether-à-go-go-related gene (hERG) potassium channel (human, UniProt Q12809)
Reported Measurement: -28.9
--
Compound: CSc1cccc(NC(=S)N2CCC(N(C)C3CCCCCC3)CC2)c1
Target Desc: human ether-à-go-go-related gene (hERG) potassium channel (human, UniProt Q12809)
Reported Measurement: -62.9
--
Compound: Cc1ccc(-n2c(SCC(=O)NCc3ccco3)nnc2-c2cccnc2)c(C)c1
Target Desc: human ether-à-go-go-related gene (hERG) potassium channel (human, UniProt Q12809);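 note: peak tail current of the secondary pulse compared with the same well before compound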
Reported Measurement: -34.4
--
Compound: O=C(CCCSc1nnc(-c2cccs2)n1CC1CCCO1)c1ccccc1 (stereo not drawn)
Target Desc: human ether-à-go-go-related gene (hERG) potassium channel (human, UniProt Q12809);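 note: peak tail current of the secondary pulse compared with the same well before compound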
Reported Measurement: -65.1
--
Compound: CSc1cccc(NC(=S)N2CCC(N(C)C(C)C)CC2)c1
Target Desc: human ether-à-go-go-related gene (hERG) potassium channel (human, UniProt Q12809);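 note: peak tail current of the secondary pulse compared with the same well before compound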
Reported Measurement: -16.2
--
Compound: CC(Sc1nnc(-c2cccs2)n1-c1ccccc1)C(=O)NCc1ccco1 (stereo not drawn)
Target Desc: human ether-à-go-go-related gene (hERG) potassium channel (human, UniProt Q12809);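 note: peak tail current of the secondary pulse compared with the same well before compound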
Reported Measurement: -79.4
